We begin with a simple list: items and their reported pIC50.
- assayed.system: T1, mouse angiopoietin-2 (mouse, UniProt O35608 19-496, limits assumed)
- T1 construct: Bought recombinant protein; also called mouse Ang-2; mAng-2
- T1 sequence (looked up): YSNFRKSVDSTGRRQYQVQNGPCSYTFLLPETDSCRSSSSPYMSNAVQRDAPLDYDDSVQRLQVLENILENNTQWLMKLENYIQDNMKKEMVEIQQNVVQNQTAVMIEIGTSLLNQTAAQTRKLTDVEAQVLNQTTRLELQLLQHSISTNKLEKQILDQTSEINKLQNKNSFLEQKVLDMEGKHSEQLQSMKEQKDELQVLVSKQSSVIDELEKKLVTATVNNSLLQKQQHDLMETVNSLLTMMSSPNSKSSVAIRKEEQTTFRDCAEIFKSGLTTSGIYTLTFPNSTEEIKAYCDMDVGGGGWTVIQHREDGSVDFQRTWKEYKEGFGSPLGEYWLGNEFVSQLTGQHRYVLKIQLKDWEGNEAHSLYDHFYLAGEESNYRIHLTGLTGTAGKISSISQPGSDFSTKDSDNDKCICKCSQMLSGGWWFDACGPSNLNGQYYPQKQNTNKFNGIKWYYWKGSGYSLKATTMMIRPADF
- measurement.protocol: competition cell ECL; mAng-2 pre-incubated with binder, free Ang-2 captured on HEK:hTie-2 cells (competitor)
When answering, recall that pIC50 equals minus log10 of the concentration in mol/L, and write that number alone.

hNGAL lipocalin mutein SEQ ID NO: 11 (designed binder, Mutein of mature hNGAL; Biotinylated with NHS-PEG4-Biotin for the SPR assay) QDSTSDLIPAPPLSKVPLQQNFQDNQFHGKWYVVGQAGNYILREDKDPVKMWATIYELKEDKSYDVTEVSFGPKKCNYRIWTFVPGSQPGEFTLGGIKSLPGGTSTLVRVVSTNYNQHAMVFFKHVLQNREFFEITLYGRTKELTSELKENFIRFSKSLGLPENHIVFPVPIDQCIDGSAWSHPQFEK | 8.84

Query: Consider the binder hNGAL lipocalin mutein SEQ ID NO: 6 (designed binder, Mutein of mature hNGAL) QDSTSDLIPAPPLSKVPLQQNFQDNQFHGKWYVVGQAGNYILREDKDPEKMWATIYELKEDKSYDVTGVSFGPKKCNYRIWTFVPGSQPGEFTLGGIKSSPGQTSTLVRVVSTNYNQHAMVFFKHVLQNREFFEITLYGRTKELTSELKENFIRFSKSLGLPENHIVFPVPIDQCIDGSAWSHPQFEK and give its recorded pIC50.
Result: 8.92
